Values from patent US20230144436A1

System: DMPK
protocol: DMPK knockdown by transfected antisense oligonucleotides in DM1 C15 myotubes at 0.5 nM and 50 nM
Format: cell-based
test parameters: 50 nM oligonucleotide, 72 hours, qPCR, relative to vehicle control = 1.00
Experimental: Two hundred and thirty-six oligonucleotides for targeting DMPK were generated using in silico analysis. Each individual oligonucleotide was evaluated for their ability to target DMPK in cellulo at two doses—0.5 nM (low dose) and 50 nM (high dose). Briefly, DM1 C15 immortalized myoblasts were cultured in T-75 flasks until near confluency (˜80% confluent). Myoblasts were then disrupted with trypsin and seeded into 96-well microplates at a density of 50,000 cells/well. […]

substance	Normalized DMPK Remaining
303 (CCGUUCCAUCUGCCCGCAGC; chemistry not given here) [compound 303]	0.23
340 (GUACAGGUAGUUCUCAUCCU; chemistry not given here) [compound 340]	0.34
314 (UCAGCAGUGUCAGCAGGUCC; chemistry not given here) [compound 314]	0.39
258 (AACUUGCUCAGCAGUGUCAG; chemistry not given here) [compound 258]	0.47
305 (UGAUCUUCAUGGCAUACACC; chemistry not given here) [compound 305]	0.10
369 (CAUGACAAUCUCCGCCAGGU; chemistry not given here) [compound 369]	0.29
334 (CCAUGACAAUCUCCGCCAGG; chemistry not given here) [compound 334]	0.24
322 (GCUCAGGCUCUGCCGGGUGA; chemistry not given here) [compound 322]	0.39
248 (CAAACUUGCUCAGCAGUGUC; chemistry not given here) [compound 248]	0.46
306 (AGGGACAGCCGCUGGAACTG; chemistry not given here) [compound 306]	0.55
254 (UUGUCGGGUUUGAUGUCCCU; chemistry not given here) [compound 254]	0.44
266 (AAUACUCCAUGACCAGGUAC; chemistry not given here) [compound 266]	0.48
297 (CUCAGGCUCUGCCGGGUGAG; chemistry not given here) [compound 297]	0.37
370 (ACUUGUUCAUGAUCUUCAUG; chemistry not given here) [compound 370]	0.47
253 (UGCUCAGCAGUGUCAGCAGG; chemistry not given here) [compound 253]	0.34
336 (GAUGUUGUCGGGUUUGAUGU; chemistry not given here) [compound 336]	0.58
251 (CUCGGCCGGAAUCCGCUCCC; chemistry not given here) [compound 251]	0.35
342 (UGGCCACAGCGGUCCAGCAG; chemistry not given here) [compound 342]	0.31
346 (GACAGAACAACGGCGAACAG; chemistry not given here) [compound 346]	0.30
272 (CUCUGCCGCAGGGACAGCCG; chemistry not given here) [compound 272]	0.06
261 (GAAGUCGGCCAGGCGGAUGU; chemistry not given here) [compound 261]	0.56
278 (CCAUCUCGGCCGGAAUCCGC; chemistry not given here) [compound 278]	0.40
296 (AUCUCCGCCAGGUAGAAGCG; chemistry not given here) [compound 296]	0.35
293 (GAAUGUCCGACAGUGUCUCC; chemistry not given here) [compound 293]	0.37
317 (AUCCGCUCCUGCAACUGCCG; chemistry not given here) [compound 317]	0.60
298 (UGCUUCAUCUUCACUACCGC; chemistry not given here) [compound 298]	0.40
359 (UGCACGUGUGGCUCAAGCAG; chemistry not given here) [compound 359]	0.36
304 (UUCCCGAGUAAGCAGGCAGA; chemistry not given here) [compound 304]	0.50
345 (AAGCGCCUCCGAUAGGCCAG; chemistry not given here) [compound 345]	0.56
371 (GUGGAAUCCGCGUAGAAGGG; chemistry not given here) [compound 371]	0.51
277 (GACCAGGUACAGGUAGUUCU; chemistry not given here) [compound 277]	0.29
320 (CCCAGCGCCCACCAGUCACA; chemistry not given here) [compound 320]	0.32
368 (CAGCAGUGUCAGCAGGUCCC; chemistry not given here) [compound 368]	0.48
